System: T-47D breast
Assay: NCI-60 one-dose screen, 48 h
Conditions: 10 µM unless noted
This is part of a sample that, as a whole, favours compounds with a hit. Of some 83,000 tested, about 20% had one in any assay. Activity calls are given as the source filed them. Rule for the calls: active = growth percent below 10; inactive = the rest.
Labels: active, inactive

[[record]]
molecule = "CC/C(=C\\c1ccc(N(C)C)cc1)c1nc2ccccc2c(=O)[nH]1"
category = "inactive"

[[record]]
molecule = "CN(CCOc1ccc(CC2SC(=O)NC2=O)cc1)c1ccccn1 (stereo unspecified)"
category = "inactive"

[[record]]
molecule = "CCN1C2=C(SC(=S)C1=C1SC(C(=O)OC)=C(C(=O)OC)S1)SC(=Nc1ccc(OC)cc1)C2=O"
category = "inactive"

[[record]]
molecule = "O=C(CCc1nnc(SCc2ccccc2)s1)c1nc2ccccc2[nH]1"
category = "inactive"

[[record]]
molecule = "O=C1NCN(CCO)CN1"
category = "inactive"

[[record]]
molecule = "CCN(CC)CCCNCCCNc1cc(OC)cc2cccnc12"
category = "inactive"

[[record]]
molecule = "Cn1c(=O)c2nc(SCc3ccccc3)n(C)c2n(C)c1=O"
category = "inactive"

[[record]]
molecule = "Cc1ccc(C(=O)Nc2ccc(Cl)cc2C(=O)NCc2ccccc2)cc1"
category = "inactive"

[[record]]
molecule = "Cc1cc(C(=O)O)c(C)cc1C(=O)O"
category = "inactive"

[[record]]
molecule = "O=C(/C=C/c1cccnc1)NCCCCC1CCCN(C(=O)c2ccccc2)C1 (stereo unspecified)"
category = "inactive"

[[record]]
molecule = "COc1cc(C(=O)/C=C/c2cccnc2Nc2ccccc2)cc(OC)c1OC"
category = "active"

[[record]]
molecule = "CCCCCCCC/C=C\\CCCCCCCCOc1ccccc1CC(=O)NCC[N+]1(C)CCCC1"
category = "inactive"

[[record]]
molecule = "CCC(=O)Nc1ccccc1C#C/C=C\\C#Cc1ccccc1C(F)(F)F"
category = "inactive"

[[record]]
molecule = "c1coc([C@@H]2C[C@@H]3Cc4ccc5ccccc5c4N2O3)c1"
category = "inactive"

[[record]]
molecule = "COC(=O)[C@]12CC[C@@H](C)[C@H](C)[C@@H]1C1=CC[C@@H]3[C@@]4(C)C[C@@H](OC(=O)c5ccco5)[C@H](O)[C@@](C)(CO)[C@@H]4[C@H](O)C[C@@]3(C)[C@]1(C)CC2"
category = "active"

[[record]]
molecule = "CC(=O)NCCSC(=O)C(=O)SCCNC(C)=O"
category = "inactive"

[[record]]
molecule = "COC(=O)CCC1=C(C)/C(=C/c2[nH]c(-c3ccc[nH]3)cc2OC)N=C1C"
category = "active"

[[record]]
molecule = "COc1ccc2c(c1)C(=O)c1c-2c(OCCCN(C)C)nc2cc(Br)ccc12"
category = "inactive"

[[record]]
molecule = "C=C(C)[C@@H]1C[C@H](O)Cc2cc(Cl)cc(Cl)c2N1"
category = "inactive"

[[record]]
molecule = "CC(C)COCC(CN(Cc1ccccc1)c1ccccc1)N1CCCC1 (stereo unspecified)"
category = "inactive"

[[record]]
molecule = "O=C(c1nn(-c2ccc(Cl)cc2)cc1O)n1nc(C(F)(F)F)cc1-c1ccccc1"
category = "inactive"


###

Tested on: UACC-257 melanoma
Assay: NCI-60 one-dose screen, 48 h (100 = growth as untreated, 0 = no growth, -100 = all killed)
Details: 10 µM unless noted
Description: Cells are grown in 96 well plates and exposed to the test compound for 48 hours. Compounds are tested at a single concentration, which is 10^-5 M for most compounds. The reported endpoint is percent growth (GI% or GIPRCNT), where numbers from 0 - 100% represent growth inhibition, and numbers from -100% - 0 represent cell death. For example, a value of 40 represents 60% growth inhibition. A value of 0 means no net growth occurred over the course of the experiment. […]
This is part of a sample that, as a whole, favours compounds with a hit. Of some 83,000 tested, about 20% had one in any assay.
Below, each entry is listed alongside its reported growth.
Parameter: growth (%)

[[record]]
compound = "COc1cc(/C=C/C(=O)N2CCN(C(=O)/C=C/c3ccccc3)CC2)cc(OC)c1OC"
tested_system = "UACC-257 melanoma"
unit_tag = "%"
reported_result = 102

[[record]]
compound = "COc1ccc2c3c(c(OCCCN(C)C)nc2c1)-c1ccc(Cl)cc1C3=O"
tested_system = "UACC-257 melanoma"
unit_tag = "%"
reported_result = 86.9

[[record]]
compound = "CC(c1ccccn1)C(C)(O)C(C)c1ccccn1 (stereo unspecified)"
tested_system = "UACC-257 melanoma"
unit_tag = "%"
reported_result = 99.8

[[record]]
compound = "COC1CC2CCC(C)C(O)(O2)C(=O)C(=O)N2CCCCC2C(=O)OC(C(C)CC2CCC(O)C(OC)C2)CC(=O)C(C)C=C(C)C(O)C(OC)C(=O)C(C)CC(C)/C=C/C=C/C=C1C (stereo unspecified)"
tested_system = "UACC-257 melanoma"
unit_tag = "%"
reported_result = 50.8

[[record]]
compound = "[O-]/[N+](=C\\C=C\\c1ccccc1)c1ccccc1"
tested_system = "UACC-257 melanoma"
unit_tag = "%"
reported_result = 127

[[record]]
compound = "c1ccc(-c2nnc(Nc3nnc(-c4ccccc4)s3)s2)cc1"
tested_system = "UACC-257 melanoma"
unit_tag = "%"
reported_result = 99.1

[[record]]
compound = "COc1cc(Oc2cc(-c3cccnc3)ccc2NC(=O)Nc2ccc(F)cc2F)cc(OC)c1OC"
tested_system = "UACC-257 melanoma"
unit_tag = "%"
reported_result = 92.6

[[record]]
compound = "COC(=O)CC1=C(C)/C(=C/c2[nH]c(-c3ccc[nH]3)cc2OC)N=C1C"
tested_system = "UACC-257 melanoma"
unit_tag = "%"
reported_result = -8.53

[[record]]
compound = "CC1=C(C(=O)Nc2ccccc2)C(c2ccc3c(c2)OCCO3)NC(=O)N1 (stereo unspecified)"
tested_system = "UACC-257 melanoma"
unit_tag = "%"
reported_result = 102

[[record]]
compound = "COc1ccc(OC)c2c1[nH]c(=O)c1c3ccccc3cn21"
tested_system = "UACC-257 melanoma"
unit_tag = "%"
reported_result = -75.5

[[record]]
compound = "Clc1ccc(-c2nc(-c3cccs3)no2)c(Cl)c1"
tested_system = "UACC-257 melanoma"
unit_tag = "%"
reported_result = 76.2

[[record]]
compound = "CC1CC(C)/C(=N/NC(N)=O)C(C(O)CC2CCC(=O)NC2=O)C1 (stereo unspecified)"
tested_system = "UACC-257 melanoma"
unit_tag = "%"
reported_result = 54.9

[[record]]
compound = "c1ccc(-n2nnnc2-c2cccc3ccccc23)cc1"
tested_system = "UACC-257 melanoma"
unit_tag = "%"
reported_result = 57.5

[[record]]
compound = "Cc1ccc(NC(=O)COC(=O)c2ccc(S(=O)(=O)N3CCCCCC3)cc2)cc1"
tested_system = "UACC-257 melanoma"
unit_tag = "%"
reported_result = 94.3

[[record]]
compound = "COc1cc(C(=O)/C=C/c2cccnc2Nc2ccccc2)cc(OC)c1OC"
tested_system = "UACC-257 melanoma"
unit_tag = "%"
reported_result = -88.2

[[record]]
compound = "CCOC(=O)C(Cc1ccccc1)(C(=O)OCC)C(Br)C(=O)c1ccccc1 (stereo unspecified)"
tested_system = "UACC-257 melanoma"
unit_tag = "%"
reported_result = 70.9

[[record]]
compound = "COC(=O)c1ccc2c(c1)nc(-c1ccc(O)c(OC)c1)n2-c1cc(C(C)(C)C)[nH]n1"
tested_system = "UACC-257 melanoma"
unit_tag = "%"
reported_result = 101

[[record]]
compound = "C[C@@H]1CC[C@H]2[C@@H](C)C(O)O[C@@H]3O[C@]4(C)CC[C@@H]1[C@]32OO4 (stereo partly specified)"
tested_system = "UACC-257 melanoma"
unit_tag = "%"
reported_result = 38.3

[[record]]
compound = "CCCCCCCCCCC[C@@H](C[C@H]1OC(=O)[C@H]1CCCCCC)OC(=O)[C@@H](CC(C)C)NC=O"
tested_system = "UACC-257 melanoma"
unit_tag = "%"
reported_result = 99.6

[[record]]
compound = "CCCc1nn(C)c2c(=O)[nH]c(-c3cc(S(=O)(=O)N4CCN(C)CC4)ccc3OCC)nc12"
tested_system = "UACC-257 melanoma"
unit_tag = "%"
reported_result = 97.9

[[record]]
compound = "CC1=CSC2=NCCN12"
tested_system = "UACC-257 melanoma"
unit_tag = "%"
reported_result = 116

